Target: Relaxin receptor 1 (Homo sapiens, UniProt Q9HBX9)
Sequence (Q9HBX9 whole entry): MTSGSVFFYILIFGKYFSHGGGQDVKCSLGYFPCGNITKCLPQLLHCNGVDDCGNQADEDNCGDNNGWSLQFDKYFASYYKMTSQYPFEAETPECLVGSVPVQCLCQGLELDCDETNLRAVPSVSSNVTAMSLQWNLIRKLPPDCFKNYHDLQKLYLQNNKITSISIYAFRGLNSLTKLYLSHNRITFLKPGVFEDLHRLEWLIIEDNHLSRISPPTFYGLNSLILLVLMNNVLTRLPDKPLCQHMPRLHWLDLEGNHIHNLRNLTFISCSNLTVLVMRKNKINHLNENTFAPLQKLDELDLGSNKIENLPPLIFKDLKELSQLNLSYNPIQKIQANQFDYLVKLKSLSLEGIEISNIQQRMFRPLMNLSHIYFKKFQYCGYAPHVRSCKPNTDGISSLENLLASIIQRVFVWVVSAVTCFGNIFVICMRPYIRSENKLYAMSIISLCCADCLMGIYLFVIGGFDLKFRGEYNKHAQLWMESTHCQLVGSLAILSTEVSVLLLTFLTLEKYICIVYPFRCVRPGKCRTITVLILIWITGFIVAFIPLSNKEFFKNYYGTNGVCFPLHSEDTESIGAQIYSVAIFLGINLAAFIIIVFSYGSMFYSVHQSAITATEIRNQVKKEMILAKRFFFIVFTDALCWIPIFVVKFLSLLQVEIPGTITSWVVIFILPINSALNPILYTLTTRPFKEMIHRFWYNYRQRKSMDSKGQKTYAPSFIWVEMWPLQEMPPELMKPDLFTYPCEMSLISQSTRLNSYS
Experiment: Agonist activity at human RXFP1 expressed in T-Rex-CHO-K1 cells assessed as stimulation of cAMP production incubated for 45 mins by HTRF assay
Type: functional, cell-based
measurement.kind: EC50 (µM)

COc1cc(F)c(O[C@H]2CC[C@@](C)(C(=O)O)CC2)cc1C(=O)N[C@@H]1CCC[C@@H]1C(=O)Nc1ccc(F)c(S(F)(F)(F)(F)F)c1 | 0.00316
COc1cc(F)c(-c2ccc(C(=O)O)cc2)cc1C(=O)N[C@H]1[C@@H](C(=O)Nc2cccc(S(=O)(=O)C(F)(F)F)c2)[C@@H]2C=C[C@H]1C2 (racemic) | 0.2
COc1cc(F)c(O[C@H]2CC[C@@H](C(=O)O)CC2)cc1C(=O)N[C@H]1[C@@H](C(=O)Nc2ccc(F)c(S(=O)(=O)C(F)(F)F)c2)[C@@H]2C=C[C@H]1C2 | 0.0158

1. COc1cc(F)c(OCCCC(=O)O)cc1C(=O)N[C@H]1[C@@H](C(=O)Nc2cccc(S(=O)(=O)C(F)(F)F)c2)[C@@H]2C=C[C@H]1C2 (racemic)
2. COc1ccccc1C(=O)N[C@H]1[C@@H](C(=O)Nc2cccc(S(=O)(=O)C(F)(F)F)c2)[C@@H]2C=C[C@H]1C2
3. COc1cc(F)c(-c2ccccc2)cc1C(=O)N[C@@H]1[C@H](C(=O)Nc2cccc(S(=O)(=O)C(F)(F)F)c2)[C@H]2C=C[C@@H]1C2 (racemic)
Ask: Descending sort on EC50 required. A ranking is expressed here by listing the labels in the requested order.
Reply: 2, 1, 3
(2: 2.51 µM, 1: 1.58 µM, 3: 0.912 µM)

---

Molecular target: Relaxin receptor 1 (Homo sapiens, UniProt Q9HBX9)
Assay: Agonist activity at human RXFP1 expressed in T-Rex-CHO-K1 cells assessed as stimulation of cAMP production incubated for 45 mins by HTRF assay
Assay type: functional, cell-based
pEC50: −log10 of the molar value.
measurement.kind: pEC50

COc1cc(F)c(-c2ccc(C(=O)O)cc2)cc1C(=O)Nc1ccccc1C(=O)Nc1cccc(S(=O)(=O)C(F)(F)F)c1 | 6.70

A. COc1cc(F)c(O[C@H]2CC[C@@](C)(C(=O)O)CC2)cc1C(=O)N[C@@H]1COC[C@@H]1C(=O)Nc1cccc(S(=O)(=O)C(F)(F)F)c1
B. COc1cc(F)c(O[C@H]2CC[C@@](C)(C(=O)O)CC2)cc1C(=O)N[C@@H]1[C@H]2CC[C@H](C2)[C@@H]1C(=O)Nc1cccc(S(=O)(=O)C(F)(F)F)c1
Ask: // which entry reports the smaller pEC50, A or B ? Answer format: the label of the selected item.
Reply: A
(A: 6.90, B: 8.70)

Source of measurements: ChEMBL document CHEMBL5518235
